- MEASURED ON: UniProt:P21554
- TEST: biochemical
- Format: binding
- Parameters: purchased RBHCB1M400UA
- REPORTED CONDITIONS: read-out: Ki for CB1
PROPERTY LABEL: Ki (µM)
Numbers only here, please. The scale is µM.

Provide Ki value for the following compound: C=C(C)[C@@H]1CCC(C)=C[C@H]1c1c(O)cc(CCC)c(C(=O)OCCO)c1O [HECBDV, 2-hydroxyethylcannabidivarinolat]
5.65

---

- MEASURED ON: CB1 receptor (Homo sapiens)
- Sequence (P21554 whole entry): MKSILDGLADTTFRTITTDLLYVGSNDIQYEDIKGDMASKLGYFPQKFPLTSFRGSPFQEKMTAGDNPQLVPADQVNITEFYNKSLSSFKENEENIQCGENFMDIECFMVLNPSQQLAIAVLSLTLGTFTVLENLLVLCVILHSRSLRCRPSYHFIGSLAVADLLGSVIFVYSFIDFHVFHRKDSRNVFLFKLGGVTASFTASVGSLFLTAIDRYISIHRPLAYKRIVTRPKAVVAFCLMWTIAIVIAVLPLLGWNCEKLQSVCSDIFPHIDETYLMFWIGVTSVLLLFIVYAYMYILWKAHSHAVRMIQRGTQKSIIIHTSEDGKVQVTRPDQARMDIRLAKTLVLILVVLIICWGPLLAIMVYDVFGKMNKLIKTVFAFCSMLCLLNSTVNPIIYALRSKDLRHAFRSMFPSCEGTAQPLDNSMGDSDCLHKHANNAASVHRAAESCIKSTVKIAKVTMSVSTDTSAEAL
- TEST: biochemical
- Type: binding
- Parameters: purchased RBHCB1M400UA
pKi listing for selected molecules.
Give only the number. pKi is defined as minus log10 of concentration in molar units.

Return reported pKi. Input molecule: C=C(C)[C@@H]1CCC(C)C=C1c1c(O)cc(CCC)c(C(=O)OCCCCCC)c1O (some centres unmarked) [HCBDV, hexylcannabidivarinolat]
8.08

Turning now to a further record.
Name the recorded pKi of the molecule listed here: C=C(C)[C@@H]1CCC(C)C=C1c1c(O)cc(CCC)c(C(=O)OC2CCCCC2)c1O (some centres unmarked) [CHCBDV, cyclohexylcannabidivarinolat]
7.88

Values compiled from patent US11964955B2.
